System: a species of Streptococcus
Assay: Effect on intestinal bacteria: number of a sp. of Streptococcus in feces
Format: in vivo, ICR mice
Settings: mouse, in vivo, po, 500 mg/kg/day
The entries below are paired with their reported Number of a sp. of Streptococcus after the administration.

A selection of reference data follows.
1. CC(=O)OCC1=C(C(=O)O)N2C(=O)C(NC(=O)CC#N)C2SC1 (centres unmarked) [Compound X, reference compound] | 9.1 Log10 (number of bacteria/g feces)
2. CC(=O)OCC1=C(C(=O)Nc2ccc(C(N)=O)cn2)N2C(=O)C(NC(=O)CSc3ccncc3)C2SC1 (centres unmarked) | 6.7 Log10 (number of bacteria/g feces)
3. Cc1nnc(SCC2=C(C(=O)Nc3ccc(C(N)=O)cn3)N3C(=O)C(NC(=O)Cn4cnnn4)C3SC2)s1 (centres unmarked) | 6.9 Log10 (number of bacteria/g feces)
4. CC(=O)OCC1=C(C(=O)Nc2ccc(C(N)=O)cn2)N2C(=O)C(NC(=O)CC#N)C2SC1 (centres unmarked) | 6.7 Log10 (number of bacteria/g feces)

Consider the record given below.
Bench note: what Number of a sp. of Streptococcus after the administration did COC(=O)Cc1ccc(NC(=O)C2=C(CSc3nnc(C)s3)CSC3C(NC(=O)Cn4cnnn4)C(=O)N23)cc1 (centres unmarked) show? 6.6 Log10 (number of bacteria/g feces)
